# assay_notes: Guinea pig pharmacokinetics
# Format: in vivo, Hartley guinea pigs
# measurement_conditions: female, Hartley, plasma, guinea pigs, SC 100 mg/kg
value_kind: half-life

1. OC[C@@H]1[C@@H](O)[C@H](O)[C@@H](O)CN1CCCCCCCCC1CCCO1 (stereo partly shown) :: 2.21 h

* * *

# assay_notes: Mouse pharmacokinetics
# Assay type: in vivo, Swiss Albino mice
# measurement_conditions: male, Swiss Albino, in vivo
value_kind: Cmax

1) OC[C@@H]1[C@@H](O)[C@H](O)[C@@H](O)CN1CCCCCCCCC1CCCO1 (stereo partly shown) :: 8880 to 12600 ng/mL

* * *

# assay_notes: in vitro
# Format: in vitro ADME
# measurement_conditions: rat, microsomes
value_kind: half-life at 0.5 µM

1. OC[C@@H]1[C@@H](O)[C@H](O)[C@@H](O)CN1CCCCCCCCC1CCCO1 (stereo partly shown) :: > 30 min

* * *

# target_of_assay: UniProt:O88941
# Sequence (O88941 whole entry): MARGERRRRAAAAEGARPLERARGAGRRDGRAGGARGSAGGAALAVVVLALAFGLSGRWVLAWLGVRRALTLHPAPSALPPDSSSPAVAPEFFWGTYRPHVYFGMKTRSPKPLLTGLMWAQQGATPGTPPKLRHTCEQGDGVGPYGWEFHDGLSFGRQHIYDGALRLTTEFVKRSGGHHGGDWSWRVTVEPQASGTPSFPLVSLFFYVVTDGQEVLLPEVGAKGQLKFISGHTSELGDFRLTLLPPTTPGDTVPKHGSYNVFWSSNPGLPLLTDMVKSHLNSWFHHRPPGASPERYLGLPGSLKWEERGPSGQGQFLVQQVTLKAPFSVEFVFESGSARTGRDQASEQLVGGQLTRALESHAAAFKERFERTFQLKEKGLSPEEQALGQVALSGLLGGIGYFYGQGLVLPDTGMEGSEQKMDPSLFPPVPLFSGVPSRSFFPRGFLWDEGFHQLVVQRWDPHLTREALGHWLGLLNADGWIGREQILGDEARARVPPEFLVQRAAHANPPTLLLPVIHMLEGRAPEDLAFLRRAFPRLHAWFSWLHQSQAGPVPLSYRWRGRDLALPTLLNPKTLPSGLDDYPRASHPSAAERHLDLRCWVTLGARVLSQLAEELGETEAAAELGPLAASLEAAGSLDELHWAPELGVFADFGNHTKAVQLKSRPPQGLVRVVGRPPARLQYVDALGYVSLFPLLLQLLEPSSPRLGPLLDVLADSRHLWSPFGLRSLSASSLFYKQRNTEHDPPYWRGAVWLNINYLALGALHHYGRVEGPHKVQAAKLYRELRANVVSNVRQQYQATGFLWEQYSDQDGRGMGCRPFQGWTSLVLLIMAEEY
value_kind: IC50 (nM)

1. OC[C@@H]1[C@@H](O)[C@H](O)[C@@H](O)CN1CCCCCCCCC1CCCO1 (stereo partly shown) [UV-12] :: 140

* * *

# assay_notes: Guinea pig pharmacokinetics
# Type: in vivo, Hartley guinea pigs
# measurement_conditions: female, Hartley, in vivo, iv, 25 mg/kg
value_kind: Vd

1) OC[C@@H]1[C@@H](O)[C@H](O)[C@@H](O)CN1CCCCCCCCC1CCCO1 (stereo partly shown) :: 5.14 L/kg

* * *

# assay_notes: Guinea pig pharmacokinetics
# Format: in vivo, Hartley guinea pigs
# measurement_conditions: female, Hartley, in vivo, sc, 100 mg/kg
value_kind: bioavailability

1) OC[C@@H]1[C@@H](O)[C@H](O)[C@@H](O)CN1CCCCCCCCC1CCCO1 (stereo partly shown) :: 131%

* * *

# assay_notes: in vitro
# Type: cell-based, canine
# measurement_conditions: dog
value_kind: CC50 at 5 days

1. OC[C@@H]1[C@@H](O)[C@H](O)[C@@H](O)CN1CCCCCCCCC1CCCO1 (stereo partly shown) :: > 500 µM

* * *

# assay_notes: Mouse pharmacokinetics
# Format: in vivo, Swiss Albino mice
# measurement_conditions: male, Swiss Albino, in vivo, iv, 10 mg/kg
value_kind: AUC(0-inf) (ng·h/mL)

1. OC[C@@H]1[C@@H](O)[C@H](O)[C@@H](O)CN1CCCCCCCCC1CCCO1 (stereo partly shown) [UV-12] :: 5910
